test system: E. coli BL21; experiment: MIC against Gram-negative bacteria: E. coli BL21; type: cell-based; conditions: 96-well plate, 5×10^5 CFU/mL, 37° C., 10 h
readout.type: MIC against E. coli BL21 (µg/mL)
Numbers only; they are read as µg/mL.

Worked set:
* PRT485 (QADPCKFLACGEFAQCVKNERTEEAECRCKPGYDSQGSL; listed as Homo sapiens) | 12.5
* PRT451 (SFYCSCRPGYKLMSDKRTCVDIDE; listed as Homo sapiens) | 50
* PRT458 (ECSRLCRNGYCTPTGKCCCSPGWEGDFC; listed as Homo sapiens) | 12.5
* PRT521 (CNCNSFGSKSFDCEESGQCWCQPGVTGKKCDRCAHGYFNFQEGGCTA; listed as Homo sapiens) | 25
* PRT515 (CHCDPIGSLNEVCVKDEKHARRGLAPGSCHCKTGFGGVSCDRCARGYTGYPDCKA; listed as Homo sapiens) | 12.5
* PRT580 (CDCDPMGSQDGGRCDSHDDPALGLVSGQCRCKEHVVGTRCQQCRDGFFGLSISDRLGCRR; listed as Homo sapiens) | 25
* PRT548 (CPCPLSVPSNNFAEGCVLRGGRTQCLCKPGYAGASCERCAPGFFGNPLVLGSSCQP; listed as Homo sapiens) | 25
* PRT493 (CDCPHTQNTCDPETGECVCPPHTQGVKCEECEDGHWGYDAEVGCQA; listed as Homo sapiens) | 50

Request: Given PRT453 (DINECEQFGTCPQHCRNTKGSYECVCADGFT; listed as Homo sapiens) , state its recorded MIC against E. coli BL21.
Response: 12.5

Request: # repeat for PRT545 (CNCSGPGIQELTDPTCDTDSGQCKCRPNVTGRRCDTCSPGFHGYPRCRP; listed as Homo sapiens)
Response: 12.5

Request: Another substance to look at: PRT518 (CACPLNIPSNNFSPTCHLDRSLGLICDGCPVGYTGPRCERCAEGYFGQPSVPGGSCQP; listed as Homo sapiens)
Response: 25

Request: Now consider PRT557 (CGCSPAGTLPEGCDEAGRCLCQPEFAGPHCDRCRPGYHGFPNCQA; listed as Homo sapiens) .
Response: 25

Request: # repeat for PRT537 (CDCNGNSNECLDGSGYCVHCQRNTTGEHCEKCLDGYIGDSIRGAPQFCQP; listed as Homo sapiens)
Response: 25

Request: What do you get for PRT459 (RTAKCEPACRHGGVCVRPNKCLCKKGYLGPQCE; listed as Homo sapiens) ?
Response: 12.5

Request: Same question, PRT503 (CACPLTIASNNFSPTCHLNDGDEVVCDWCAPGYSGAWCERCADGYYGNPTVPGESCVP; listed as Homo sapiens) this time
Response: 25
